# measured-on: Amyloid-beta precursor protein (Homo sapiens, UniProt P05067)
# Sequence (P05067 whole entry): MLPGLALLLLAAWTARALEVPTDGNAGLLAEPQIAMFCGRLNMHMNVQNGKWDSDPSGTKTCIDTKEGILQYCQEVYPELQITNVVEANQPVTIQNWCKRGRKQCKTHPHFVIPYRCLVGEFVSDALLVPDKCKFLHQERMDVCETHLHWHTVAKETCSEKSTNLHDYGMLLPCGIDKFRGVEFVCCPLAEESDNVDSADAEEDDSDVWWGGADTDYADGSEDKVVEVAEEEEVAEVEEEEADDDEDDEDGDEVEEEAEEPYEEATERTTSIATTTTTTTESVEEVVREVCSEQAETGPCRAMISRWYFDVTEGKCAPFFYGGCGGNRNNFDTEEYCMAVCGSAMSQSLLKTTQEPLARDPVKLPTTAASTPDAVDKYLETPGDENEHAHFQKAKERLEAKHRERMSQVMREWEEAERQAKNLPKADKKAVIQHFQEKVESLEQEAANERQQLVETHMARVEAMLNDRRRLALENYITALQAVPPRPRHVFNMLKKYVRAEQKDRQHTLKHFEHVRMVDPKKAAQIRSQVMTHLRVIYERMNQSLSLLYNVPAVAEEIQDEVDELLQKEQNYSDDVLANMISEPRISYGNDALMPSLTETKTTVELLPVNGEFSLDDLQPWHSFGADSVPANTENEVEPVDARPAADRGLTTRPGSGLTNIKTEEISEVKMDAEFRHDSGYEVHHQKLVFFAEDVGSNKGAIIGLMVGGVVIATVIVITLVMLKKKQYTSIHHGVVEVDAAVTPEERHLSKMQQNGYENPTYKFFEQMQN
# measurement-protocol: Binding affinity to beta-amyloid plaque in Alzheimer's disease patient brain at 10 uM by fluorescence microscopic analysis
Active and inactive are the calls of the source. No cut-off for these calls is given here.
Classes to choose from: True = active, False = inactive

Example entries begin here.
[[record]]
mol = "Oc1cc(/C=C/c2ccc(C(F)(F)C(F)F)cc2)ccc1/C=C/c1ccc(C(F)(F)C(F)F)cc1"
assigned_label = "True"

[[record]]
mol = "Oc1ccc(/C=C/c2ccc(/C=C/c3ccc(O)cc3)c(OCC(F)(F)F)c2)cc1"
assigned_label = "False"

[[record]]
mol = "COc1cc(/C=C/c2ccc(O)cc2)c(OC)cc1/C=C/c1ccc(O)cc1"
assigned_label = "False"

[[record]]
mol = "COc1cc(/C=C/c2ccc(C(F)(F)C(F)F)cc2)ccc1/C=C/c1ccc(C(F)(F)C(F)F)cc1"
assigned_label = "True"


-- ask Record lookup: outcome of this test for COc1cc(/C=C/c2ccc(CO)cc2)ccc1/C=C/c1ccc(CO)cc1 ?
-- reply True

Data provenance: ChEMBL document CHEMBL3232800
